Attribution: paper PMC9482650

Molecular target: SNX27, Q96L92
Assay: holdup assay
Set-up: key: below the threshold = too weak to quantify, mostly under pKd 3.1 to 4
Conditions: plain residues with an end cap or a label only (N-terminal biotin on a linker: ttds)
Consider the following binders; for each one, report its pKd.
Please reply with the value in numeric form only.

Request: Record request: pKd value, item ERKLSSESQV [LRP4, O75096]
Response: 4.75

Request: Record request: pKd value, item STLTIFETAL [ABCC4, O15439]
Response: 5.85

Request: Record request: pKd value, item GQDSREETQL [KCNT2, Q6UVM3]
Response: 5.27

Request: Record request: pKd value, item PKTPPTDTSV [KIR3DL3, Q8N743]
Response: 4.28

Request: Record request: pKd value, item SSRTRRETQL [HPV16-E6, P03126]
Response: 4.91
